Measurement target: Glucagon-like peptide 1 receptor (Homo sapiens)
Sequence (P43220 whole entry): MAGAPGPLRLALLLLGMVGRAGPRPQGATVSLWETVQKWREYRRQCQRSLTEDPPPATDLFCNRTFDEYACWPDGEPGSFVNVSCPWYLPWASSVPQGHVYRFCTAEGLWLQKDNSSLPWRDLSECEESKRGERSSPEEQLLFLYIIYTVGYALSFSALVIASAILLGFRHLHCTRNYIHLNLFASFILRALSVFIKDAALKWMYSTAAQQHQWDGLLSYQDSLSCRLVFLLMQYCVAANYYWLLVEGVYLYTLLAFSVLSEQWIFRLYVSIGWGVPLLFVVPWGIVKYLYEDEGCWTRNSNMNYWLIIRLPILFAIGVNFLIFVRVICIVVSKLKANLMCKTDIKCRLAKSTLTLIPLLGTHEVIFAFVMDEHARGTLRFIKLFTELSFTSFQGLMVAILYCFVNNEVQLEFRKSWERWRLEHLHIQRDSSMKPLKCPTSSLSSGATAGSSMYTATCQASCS
Assay protocol: Agonist activity at human GLP-1R expressed in CHO-K1 cells assessed as increase in cAMP level incubated for 30 mins
pEC50: −log10 of the molar value. Where a SMILES comes first, the peptide text is derived from it. Bridges are numbered along the chain shown (N, C = ends). [ ]: non-standard residue; d: D form. ξ: configuration not given here. Bip(2'-Et-4'-OMe) = CCc1cc(OC)ccc1-c1ccc(C[C@H](N)C(=O)O)cc1; ξαMePhe(2,6-F2) = CC(N)(Cc1c(F)cccc1F)C(=O)O; hhPhe = N[C@@H](CCCc1ccccc1)C(=O)O; Aib = CC(C)(N)C(=O)O
Listed here are molecules together with their documented pEC50.

[
  {
    "Molecule": "CCc1cc(OC)ccc1-c1ccc(C[C@H](NC(=O)[C@H](CC(=O)O)NC(=O)[C@H](CS)NC(=O)[C@@H](NC(=O)[C@](C)(Cc2ccccc2F)NC(=O)[C@@H](NC(=O)CNC(=O)[C@H](CCC(=O)O)NC(=O)C(C)(C)NC(=O)[C@@H](N)Cc2cnc[nH]2)[C@@H](C)O)[C@@H](C)O)C(=O)N[C@@H](CCCc2ccccc2)C(=O)N[C@H](CS)C(N)=O)cc1",
    "Measurement target": "Glucagon-like peptide 1 receptor (Homo sapiens)",
    "pEC50": 5.94
  },
  {
    "Molecule": "CCc1cc(OC)ccc1-c1ccc(C[C@@H]2NC(=O)[C@H](CC(=O)O)NC(=O)[C@H](CO)NC(=O)[C@@H]3CSSC[C@@H](C(=O)O)NC(=O)[C@H](CSSC[C@H](NC(=O)CNC(=O)[C@H](CCC(=O)O)NC(=O)C(C)(C)NC(=O)[C@@H](N)Cc4cnc[nH]4)C(=O)N[C@@H](Cc4ccccc4)C(=O)N3)NC(=O)[C@H](CC(C)C)NC(=O)[C@H](CCCc3ccccc3)NC2=O)cc1 (H-H[Aib]EGCFCSD[Bip(2'-Et-4'-OMe)][hhPhe]LCC-OH; disulfide 5-13, 7-14)",
    "Measurement target": "Glucagon-like peptide 1 receptor (Homo sapiens)",
    "pEC50": 4.80
  },
  {
    "Molecule": "CCc1cc(OC)ccc1-c1ccc(C[C@@H]2NC(=O)[C@H](CC(=O)O)NC(=O)[C@H](CO)NC(=O)[C@@H]3CSSC[C@@H](C(=O)O)NC(=O)[C@H](CSSC[C@H](NC(=O)CNC(=O)[C@H](CCC(=O)O)NC(=O)C(C)(C)NC(=O)[C@@H](N)Cc4cnc[nH]4)C(=O)NC(C)(Cc4c(F)cccc4F)C(=O)N3)NC(=O)[C@H](CC(C)C)NC(=O)[C@H](CCCc3ccccc3)NC2=O)cc1 (stereo partly drawn) (H-H[Aib]EGC[ξαMePhe(2,6-F2)]CSD[Bip(2'-Et-4'-OMe)][hhPhe]LCC-OH; disulfide 5-13, 7-14)",
    "Measurement target": "Glucagon-like peptide 1 receptor (Homo sapiens)",
    "pEC50": 6.37
  }
]
